procedure details: log P determination by HPLC on reversed-phase columns (C 18), analogously to OECD Guideline 117
Assay type: physicochemical
experimental setup: LC-MS in the neutral range, pH 7.8, 0.001 molar aqueous ammonium hydrogencarbonate / acetonitrile, HPLC reversed-phase C 18
Measured logP (neutral), listed per entry.
Lab note: jot the number down without any unit.

CCn1c(=O)[nH]n(-c2cc(SCC(F)(F)F)c(C)cc2F)c1=O [Example 85]    0.86
Cc1cc(F)c(N2C(=O)C3(CCC3)C(=O)N2C)cc1SCC(F)(F)F [Example 179]    2.96
Cc1cc(F)c(N2C(=O)C(=O)N(CC(C)C)C2=S)cc1[S+]([O-])CC(F)(F)F (stereo not drawn) [Example 194]    3.53
COc1ccc(-n2c(=O)n(C3CC3)c(=O)n2C)cc1SCC(F)(F)F [Example 42]    2.46
Cc1ccc(-n2c(=O)n(C3CC3)c(=O)n2Cc2ccccc2)cc1SCC(F)(F)F [Example 90]    3.71
Cc1cc(F)c(-n2c(=O)n(-c3ccccc3)c(=O)n2C)cc1[S+]([O-])CC(F)(F)F (stereo not drawn) [Example 163]    2.38
C=CCn1c(=O)n(CC(F)(F)F)n(-c2cc(SCC(F)(F)F)c(C)cc2F)c1=O [Example 154]    3.64
COCCCn1c(=O)n(C)n(-c2cc([S+]([O-])CC(F)(F)F)c(C)cc2F)c1=O (stereo not drawn) [Example 170]    1.98

What the record says about Cc1cc(F)c(-n2c(=O)n(C(C)C)c(=O)n2C(C)(C)C)cc1[S+]([O-])CC(F)(F)F (racemic) [Example 152] : logP (neutral) is 3.35

What the record says about C=CCn1c(=O)n(C2CC2)c(=O)n1-c1ccc(C)c(SCC(F)(F)F)c1 [Example 48] : logP (neutral) is 3.31

What the record says about Cc1cc(F)c(-n2c(=O)n(-c3ccccc3)c(=O)n2CC(F)(F)F)cc1SCC(F)(F)F [Example 155] : logP (neutral) is 3.90

What the record says about Cc1cc(F)c(-n2c(=O)n(C(C)C)c(=O)n2C(C)(C)C)cc1SCC(F)(F)F [Example 143] : logP (neutral) is 4.56

Where do these numbers come from? They come from patent US9981928B2.
